System: UACC-62
TEST_PROTOCOL: NCI tumour cell line growth inhibition, 48 h
The source made the active and inactive calls. No stated cut-off is given here; in the data, active = GI50 up to about 1.1 µM and inactive = higher.
Parameter: GI50. Scope: all listed entries.

(Q) Entry Clc1cccc(Cl)c1/C=N/C12CC3CC(CC(C3)C1)C2 : reported GI50 = ?
(A) > 10 µM (inactive)

###

Tested on: RPMI-8226
TEST_PROTOCOL: NCI tumour cell line growth inhibition, 48 h
Activity calls are given as the source filed them. Rule as the data show it: active = GI50 up to about 1.1 µM and inactive = higher.
VALUE_TYPE: GI50

Worked set:
1) Cc1ccc(OC2CC(n3cnc4c(=O)[nH]c(Br)nc43)OC2Oc2ccc(C)cc2)cc1 (configuration not stated)    34.4 µM (inactive)
2) CC1(C)Oc2ccc(NC(=O)CCC(N)C(=O)O)cc2O1 (configuration not stated)    > 100 µM (inactive)
3) O=C(Sc1sc(=S)sc1SC(=O)c1ccccc1)c1ccccc1    > 100 µM (inactive)
4) O=C(c1ccccc1)N1C(=S)NC(=N/c2ccccc2)/C1=N\c1ccccc1    > 100 µM (inactive)

(Q) # GI50 lookup, item CC(=O)Nc1ccccc1Sc1ccccc1
(A) > 100 µM (inactive)

(Q) Item under review: Cc1ccc(C2(O)CC(c3ccc([N+](=O)[O-])o3)=NN2C(=O)COc2ccc(Cl)cc2)cc1 (configuration not stated) . Reported GI50?
(A) 2.24 µM (inactive)

(Q) Reported GI50 for c1ccc2cc3c(cc2c1)OP1(Oc2cccc4cccnc24)(O3)Oc2cc3ccccc3cc2O1 : what is it?
(A) 1.07 µM (active)
